B1: HDV Ribozyme (parent)
chain: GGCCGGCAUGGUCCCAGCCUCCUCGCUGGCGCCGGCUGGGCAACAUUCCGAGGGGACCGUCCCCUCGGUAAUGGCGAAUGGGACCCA

Variants of: B1
Test: self-cleavage, relative activity (ratio to wild type); higher = more cleavage; co-transcriptional
Record form. Attribute: self-cleavage. Fill in for each entry.
Numbers only.

Consider the worked cases shown below.
U69C A70U
0.875
C41A G80C
0.164
C7A G73C
0.106
C18U C85U
0.582

Parameters: items (list). Returns: self-cleavage for each item.
1. C36U G73A
2. U23G G52C
3. A43G C62G

Outgoing:
0.428
0.807
0.415

Parameters: items (list). Returns: self-cleavage for each item.
1. A16U U79G
2. A56G G67U

Outgoing:
[1.13, 0.997]

Parameters: items (list). Returns: self-cleavage for each item.
1. C57A G73A
2. A77C C86A

Outgoing:
1. 0.708
2. 0.407

Parameters: items (list). Returns: self-cleavage for each item.
1. G17U U60C
2. U20A U23A

Outgoing:
1. 0.601
2. 0.277
